# target.or.system: T1, EGFR-Fc fusion protein (recombinant EGFR extracellular region-Fc) (human, UniProt P00533 25-645)
# T1 construct: extracellular domain; not shown: Fc part supplied by vector pABG1
# test.summary: BLI ForteBio QKe, biotinylated EGFR-Fc on streptavidin sensor, antibody 20 nM; fold reduction of affinity, parent Ame55 = 1;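 further: parent antibody affinity set as 1, with values giving the fold drop in affinity of each mutant antibody relative to that parent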
property.measured: Affinity change

>>> result("AmeA1C1 (the mutated light chain has Gly at site 26 and Ser at site 89) (antibody, V domains shown, Mutant of Ame55; also called 26G + 89S) VH: EVQLVQSGAEVKKPGESLKISCKGSGYSFTSYWIGWVRQMPGKGLEWMGIIYPGDSDTRYSPSFQGQVTISADKSISTAYLQWSSLKASDTAMYYCARGIIYPSNVAVWGQGTLVTVSS VL: SYELTQPPSVSVAPGQTARITCSGDGLGDKYASWYQQKPGQAPVLVIYEDSKRPSGIPERFSGSNSGNTATLTISGTQAEDEADYYCSSWDGDWGMPVFGGGTKLTVLG")
"< 0.3 fold"
>>> result("Ame55 mutant, heavy chain 106A (antibody, V domains shown, Mutant of Ame55) VH: EVQLVQSGAEVKKPGESLKISCKGSGYSFTSYWIGWVRQMPGKGLEWMGIIYPGDSDTRYSPSFQGQVTISADKSISTAYLQWSSLKASDTAMYYCARGIIYPSNAAVWGQGTLVTVSS VL: SYELTQPPSVSVAPGQTARITCSGDALGDKYASWYQQKPGQAPVLVIYEDSKRPSGIPERFSGSNSGNTATLTISGTQAEDEADYYCSVWDGDWGMPVFGGGTKLTVLG")
"> 10 fold"

Retrieve Affinity change measured for Ame55 mutant, light chain 88N (antibody, V domains shown, Mutant of Ame55) VH: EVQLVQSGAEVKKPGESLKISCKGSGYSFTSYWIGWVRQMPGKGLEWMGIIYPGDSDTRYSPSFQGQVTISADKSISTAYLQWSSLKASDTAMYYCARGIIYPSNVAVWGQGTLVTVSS VL: SYELTQPPSVSVAPGQTARITCSGDALGDKYASWYQQKPGQAPVLVIYEDSKRPSGIPERFSGSNSGNTATLTISGTQAEDEADYYCNVWDGDWGMPVFGGGTKLTVLG and print it.
> 10 fold
